- MEASUREMENT TARGET: RAF proto-oncogene serine/threonine-protein kinase (Homo sapiens, UniProt P04049)
- Sequence (P04049 whole entry): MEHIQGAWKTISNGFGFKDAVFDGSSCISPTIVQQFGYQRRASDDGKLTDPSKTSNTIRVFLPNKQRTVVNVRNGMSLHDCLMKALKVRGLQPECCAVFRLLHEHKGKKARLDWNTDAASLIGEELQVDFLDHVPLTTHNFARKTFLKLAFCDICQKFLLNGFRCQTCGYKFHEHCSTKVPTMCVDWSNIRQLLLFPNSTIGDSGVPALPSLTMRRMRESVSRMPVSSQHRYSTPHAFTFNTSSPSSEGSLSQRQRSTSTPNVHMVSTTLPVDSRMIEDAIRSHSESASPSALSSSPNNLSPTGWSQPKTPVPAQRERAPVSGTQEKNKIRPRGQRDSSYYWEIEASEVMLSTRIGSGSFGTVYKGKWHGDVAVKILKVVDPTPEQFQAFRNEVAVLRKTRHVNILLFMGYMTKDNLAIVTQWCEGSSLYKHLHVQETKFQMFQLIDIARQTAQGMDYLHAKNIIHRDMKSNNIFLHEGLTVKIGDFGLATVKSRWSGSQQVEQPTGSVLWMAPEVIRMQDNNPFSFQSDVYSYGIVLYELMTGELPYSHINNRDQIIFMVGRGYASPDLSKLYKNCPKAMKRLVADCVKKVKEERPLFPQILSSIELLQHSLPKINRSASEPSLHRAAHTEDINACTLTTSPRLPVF
- PROTOCOL NOTES: Biochemical Assay: Assays for biochemical and cell based activity are known in the art, for example, as described in PCT publication WO 2007/002433, the disclosure of which is hereby incorporated by reference as it relates to such assays. For example, the biochemical activity IC50 values are determined with respect to inhibition of B-Raf kinase activity, c-Raf-1 kinase activity, or B-Raf V600E kinase activity, where inhibition of phosphorylation of a peptide substrate is measured as a function of compound concentration. Compounds to be tested are diluted in dimethyl sulfoxide to a concentration of 0.1 mM. These are serially diluted 15 μL into 30 μL of dimethyl sulfoxide seven times in 96 well plates for a total of 8 dilution points, and for each dilution point 1 μL is added to a well of an assay plate. Plates are prepared such that each well in a 384 well plate contains 1 μL of compound in 10 μL volume with 0.1 ng Raf enzyme (i.e. any of B-Raf, c-Raf-1 or B-Raf V600E, Upstate Biotechnology or prepared by methods known to one of skill in the art), 50 mM HEPES, pH 7.0, 50 mM NaCl, 2 mM MgCl2, 1 mM MnCl2, 0.01% Tween-20, 1 mM DTT, and 100 nM biotin-MEK1 as substrate. The reaction is started with addition of 10 μL of 200 μM ATP (i.e. final 100 μM ATP). After incubation of the kinase reaction for 45 minutes at room temperature, 5 μL/well of Stop Solution is added (25 mM Hepes pH 7.5, 100 mM EDTA, 0.01% BSA with donor beads (Streptavidin coated beads, Perkin Elmer), acceptor beads (Protein A coated, Perkin Elmer), and anti phosphor MEK1/2 antibody (CellSignal), each at final concentration 10 μg/mL). The plates are incubated for 3 hours at room temperature and read on Envision reader (Perkin Elmer). Phosphorylation of Mek1 results in binding of the anti-phosphor-MEK1/2 antibody and association of the donor and acceptor beads such that signal correlates with kinase activity.
pIC50: −log10 of the molar value.

ENTRY SMILES	pIC50
CCCS(=O)(=O)Nc1ccc(F)c(C(=O)c2c[nH]c3ncnc(Nc4ccccc4)c23)c1F	> 7.00
